# Tested on: Vero E6
# assay.explanation: cell viability relative to DMSO; higher = less toxic
# measurement.parameters: 72 h; 10000 nM
attribute.measured: cell viability (%)
Write the number in % without appending the unit.

# compound, target.or.test.system, experimental.result
data = [
    ("CC[C@@]1(O)C(=O)OCc2c1cc1n(c2=O)Cc2cc3cc(O)ccc3nc2-1 [10-hydroxycamptothecin]", "Vero E6", 22.5),
    ("Clc1cc(Cl)c(OCC#CI)cc1Cl", "Vero E6", 93.9),
    ("O=C(Nc1cccc(C(F)(F)F)c1)Nc1ccc(Br)cc1-c1nnn[nH]1", "Vero E6", 110),
    ("CNC(=O)c1cnn(-c2nc(N)c3ncn([C@@H]4O[C@H](CO)[C@@H](O)[C@H]4O)c3n2)c1", "Vero E6", 111),
    ("CC(C)[C@H](N)C(=O)OCC(CO)OCn1cnc2c(=O)nc(N)[nH]c21 (mixture of isomers)", "Vero E6", 97.4),
    ("C=C[C@@]1(C)CC(=O)[C@]2(O)[C@@]3(C)[C@@H](O)CCC(C)(C)[C@@H]3[C@H](O)[C@H](OC(C)=O)[C@@]2(C)O1", "Vero E6", 85.7),
    ("CC(=O)OCC(=O)[C@@]1(OC(C)=O)[C@@H](C)C[C@H]2[C@@H]3C[C@H](F)C4=CC(=O)C=C[C@]4(C)[C@@]3(F)[C@@H](O)C[C@@]21C [diflorasone-diacetate]", "Vero E6", 98.1),
    ("CCCCC(CC)CNC(=N)NC(=N)NCCCCCCNC(=N)NC(=N)NCC(CC)CCCC (stereo unspecified)", "Vero E6", 32.8),
    ("NC(=O)c1ncn([C@@H]2O[C@H](CO)[C@@H](O)[C@H]2O)c1N", "Vero E6", 97.2),
    ("CN1CCN(C(=O)c2cc3cc(Cl)ccc3[nH]2)CC1", "Vero E6", 99.8),
]

Dear colleague, I am looking for the recorded cell viability of the following compound: COc1ccc(S(=O)(=O)N2c3ccc(Cl)cc3[C@](O)(c3ccccc3Cl)[C@@H]2C(=O)N2CCC[C@H]2C(N)=O)cc1OC
97.5

Dear colleague, I am looking for the recorded cell viability of the following compound: C[C@]12CC[C@H]3[C@@H](CC[C@@]45O[C@@H]4C(O)=C(C#N)C[C@]35C)[C@@H]1CC[C@@H]2O
102

Dear colleague, I am looking for the recorded cell viability of the following compound: N#CCC(=O)NN [cyacetacide]
102

Dear colleague, I am looking for the recorded cell viability of the following compound: COc1cc(C[C@H](C)[C@H](C)Cc2ccc3c(c2)OCO3)ccc1O
101

Dear colleague, I am looking for the recorded cell viability of the following compound: COc1ccc(C2CC(c3c(O)cc(C)oc3=O)=NCCS2)c(OC)c1 (stereo unspecified)
31

Dear colleague, I am looking for the recorded cell viability of the following compound: Cc1cc2c(N3CCCC3)nc(N3CCCC3)nc2n1C
93.5

---

# cell viability per record follows
# Tested on: Vero E6
# assay.explanation: cell viability relative to DMSO; higher = less toxic
# measurement.parameters: 72 h; 1 nM
Write the number in % without appending the unit.

Please review the entries below; each comes with its answer.
# compound, cell viability, %
rows = [
    ("CO[C@@]1(NC(=O)Cc2cccs2)C(=O)N2C(C(=O)O)=C(COC(N)=O)CS[C@@H]21 [cefoxitin]", 104),
    ("C[C@@H](CN1CC(=O)NC(=O)C1)N1CC(=O)NC(=O)C1 [dexrazoxane]", 105),
    ("Cc1cc2c(N3CCCC3)nc(N3CCCC3)nc2n1C", 104),
    ("CC(C)[C@H](N)C(=O)OCC(CO)OCn1cnc2c(=O)nc(N)[nH]c21 (mixture of isomers) [valganciclovir]", 99.3),
    ("COc1ccc(C2CNC(=O)NC2)cc1O[C@H]1C[C@@H]2CC[C@H]1C2 [atizoram]", 96.5),
    ("O[C@H]([C@H](O)[C@@H]1CO1)[C@H]1CO1 [dianhydrogalactitol]", 97.6),
]

Note: attention shifts to another entry.
Dear colleague, I am looking for the recorded cell viability of the following compound: N#CCC(=O)NN [cyacetacide]
106

Origin of the recorded values: the supplement of paper PMC13380429
